target: recombinant human Myt1 (full length PKMYT1) (Homo sapiens, UniProt Q99640); experiment: ADP-Glo assay (Myt1 kinase activity)
Sequence (Q99640 whole entry): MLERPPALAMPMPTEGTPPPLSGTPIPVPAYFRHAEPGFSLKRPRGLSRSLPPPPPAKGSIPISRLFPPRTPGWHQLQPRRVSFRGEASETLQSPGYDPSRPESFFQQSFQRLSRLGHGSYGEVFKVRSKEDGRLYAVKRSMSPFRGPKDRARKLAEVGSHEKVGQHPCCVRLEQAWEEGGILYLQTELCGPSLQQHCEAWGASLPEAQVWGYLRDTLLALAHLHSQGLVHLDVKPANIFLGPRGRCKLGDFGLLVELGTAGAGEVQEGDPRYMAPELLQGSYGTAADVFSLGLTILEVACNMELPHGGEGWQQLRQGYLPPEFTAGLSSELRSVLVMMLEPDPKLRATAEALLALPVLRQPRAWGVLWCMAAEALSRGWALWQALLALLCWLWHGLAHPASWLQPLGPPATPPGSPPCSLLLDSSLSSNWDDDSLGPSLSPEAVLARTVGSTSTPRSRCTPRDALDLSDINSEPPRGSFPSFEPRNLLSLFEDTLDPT
Mark each entry Met if its IC50 sits below 20 nM, and Not met for all others.

Here's what some known entries look like.
Cc1cc2[nH]c(=O)c(N)c(-c3ccc(F)c4[nH]ncc34)c2nc1N1CC2CCC1CN2C (centres unmarked)	Not met
Cc1ncc(OCC2CC2)c2c(-c3ccc(F)c4[nH]ncc34)c(N)c(=O)[nH]c12	Met

Query: Field: below-cutoff. Rule: recorded IC50 strictly less than 20 nM. Subject: `Cc1cnc(Cl)c2c(-c3ccc(F)c4[nH]ncc34)c(N)c(=O)[nH]c12`
Result: Met

Query: Field: below-cutoff. Rule: recorded IC50 strictly less than 20 nM. Subject: `COc1cnc2c(-c3ccc(F)c4[nH]ncc34)c(N)c(=O)[nH]c2c1C`
Result: Met
